- TARGET OF ASSAY: T1, Ax1 protein, extracellular domain (human, UniProt P30530 26-451)
- T1 construct: extracellular domain; also called Axl; Ark
- T1 sequence (looked up): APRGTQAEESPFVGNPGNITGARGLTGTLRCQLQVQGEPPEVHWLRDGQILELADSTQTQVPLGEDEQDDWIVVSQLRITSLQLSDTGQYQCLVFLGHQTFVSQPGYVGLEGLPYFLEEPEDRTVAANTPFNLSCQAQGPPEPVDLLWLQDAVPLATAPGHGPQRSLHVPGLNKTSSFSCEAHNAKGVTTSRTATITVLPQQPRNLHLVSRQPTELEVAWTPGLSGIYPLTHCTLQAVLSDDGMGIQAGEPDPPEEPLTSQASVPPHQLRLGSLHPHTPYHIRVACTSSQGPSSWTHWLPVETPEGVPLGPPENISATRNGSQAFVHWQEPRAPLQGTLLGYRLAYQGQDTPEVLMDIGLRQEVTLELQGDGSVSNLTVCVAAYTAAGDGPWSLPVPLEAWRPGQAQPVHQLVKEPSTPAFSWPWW
- TEST PROTOCOL: ELISA, mutant diluted 1:9
- Text: The DNA encoding the wild-type antibody was evolved to generate a mutant antibody library using Comprehensive Positional Evolution (CPE), which each position in the template antibody is randomized one at a time. Each mutant antibody in the library has only one single point mutation. The mutant antibodies in the library were generated by simultaneously screening for selective binding affinity to Ax1 at pH 6.0 over pH 7.4 by ELISA. Two mutant antibody dilutions were used: 1:3 and 1:9 dilutions.
Affinity ELISA CPE mutant ratio (1:9, pH 6.0/7.4) vs 3: less than gives satisfied; not less than gives not satisfied.

LC-A034Q (antibody, V domains shown, CPE single point mutant) VH: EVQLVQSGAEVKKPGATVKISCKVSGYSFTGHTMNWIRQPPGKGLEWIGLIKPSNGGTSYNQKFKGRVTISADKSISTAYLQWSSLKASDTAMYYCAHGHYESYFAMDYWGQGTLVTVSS VL: DIQMTQSPSSLSASVGDRVTITCKASQDVSSAVQWYQQKPGQAPRLLIYWASTRHTGVPSRFSGSGSGTEFTLTISSLQPDDFATYYCQEHFSTPLTFGQGTKVEIK = satisfied
LC-P095S (antibody, V domains shown, CPE single point mutant) VH: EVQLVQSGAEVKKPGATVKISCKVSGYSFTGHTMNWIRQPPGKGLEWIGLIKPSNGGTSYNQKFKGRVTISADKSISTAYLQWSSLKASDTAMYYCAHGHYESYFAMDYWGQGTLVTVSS VL: DIQMTQSPSSLSASVGDRVTITCKASQDVSSAVAWYQQKPGQAPRLLIYWASTRHTGVPSRFSGSGSGTEFTLTISSLQPDDFATYYCQEHFSTSLTFGQGTKVEIK = not satisfied
LC-H091S (antibody, V domains shown, CPE single point mutant) VH: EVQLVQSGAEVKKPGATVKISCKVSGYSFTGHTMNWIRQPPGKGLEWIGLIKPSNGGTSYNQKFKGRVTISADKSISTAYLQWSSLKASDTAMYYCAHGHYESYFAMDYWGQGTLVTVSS VL: DIQMTQSPSSLSASVGDRVTITCKASQDVSSAVAWYQQKPGQAPRLLIYWASTRHTGVPSRFSGSGSGTEFTLTISSLQPDDFATYYCQESFSTPLTFGQGTKVEIK = satisfied

Kindly consider the entry below.
Does the reported Affinity ELISA CPE mutant ratio (1:9, pH 6.0/7.4) of HC-F105T (antibody, V domains shown, CPE single point mutant) VH: EVQLVQSGAEVKKPGATVKISCKVSGYSFTGHTMNWIRQPPGKGLEWIGLIKPSNGGTSYNQKFKGRVTISADKSISTAYLQWSSLKASDTAMYYCAHGHYESYTAMDYWGQGTLVTVSS VL: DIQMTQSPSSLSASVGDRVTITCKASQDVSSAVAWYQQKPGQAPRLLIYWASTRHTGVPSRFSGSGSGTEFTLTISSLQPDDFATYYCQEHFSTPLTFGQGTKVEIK stay below 3?
not satisfied
